- Test system: serum lipids and serum lipid hydroperoxide
- assayExplanation: Pharmacological test method A for anti-hyperlipidemic activity (serum lipids, 2 weeks feeding)
- Type: in vivo, male Wistar strain rats
- setupConditions: 1% in hyperlipidemic diet, 2 weeks
Entries annotated with measured LPO in serum
Lab book: enter the figure in nmol/mL, no units written.

Below, each entry is followed by its recorded LPO in serum result.
compound	unitAbbrev	LPO in serum
CC(C)=CCCC(C)C1CCC2(C)C3CCC4C(C)(C)C(OC(=O)c5cccc(N)c5)CCC45CC35CCC12C (stereo not drawn) [Example 23, cycloartenyl-m-aminobenzoate]	nmol/mL	2.06
C=C(CCC(C)C1CCC2(C)C3CCC4C(C)(C)C(OC(=O)C=Cc5ccc(OC(C)=O)cc5)CCC45CC35CCC12C)C(C)C (stereo not drawn)	nmol/mL	2.02
CC(C)=C(C)CCC(C)C1CCC2(C)C3CCC4C(C)(C)C(OC(=O)c5ccc(O)c(O)c5)CCC45CC35CCC12C (stereo not drawn) [Example 39, cyclobranyl-3,4-dihydroxybenzoate]	nmol/mL	1.99

### Prompt Record request: LPO in serum value, item CC(C)=CCCC(C)C1CCC2(C)C3CCC4C(C)(C)C(OC(=O)C=Cc5ccc(N)cc5)CCC45CC35CCC12C (stereo not drawn)
### Response 2.02

### Prompt // query: CCCCC/C=C\C/C=C\CCCCCCCC(=O)OC1CCC23CC24CCC2(C)C(C(C)CCC(C)=C(C)C)CCC2(C)C4CCC3C1(C)C (stereo not drawn) [Example 51, cyclobranyllinolate]
### Response 1.69

### Prompt // query: CC(C)=C(C)CCC(C)C1CCC2(C)C3CCC4C(C)(C)C(OC(=O)c5ccc(N)cc5)CCC45CC35CCC12C (stereo not drawn) [Example 43, cyclobranyl-p-aminobenzoate]
### Response 1.54
